B1: tRNA (parent)
chain: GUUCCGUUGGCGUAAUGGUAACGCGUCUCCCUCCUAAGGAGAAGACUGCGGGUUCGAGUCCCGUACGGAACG

Variants of: B1
Assay: yeast fitness relative to wild type (ratio to wild type); higher = fitter; tRNA-Arg(CCU), competitive growth, 37 C, YPD
Variants at the floor of the assay were thinned out.
# yeast fitness listing for each entry below

Answered examples (5):
> print(dat)
                             sequence.input    metric.name  experimental.value
1  GUUGGGUUGGCGUAAUGGUAACGCGUCUCUUUCCUAAGGAGAAGUCUGCGGGUUCGAGUCCCGUACGGAACG [C4G C5G C30U C31U A45U]  yeast fitness               ≤ 0.5
2  GUUUCGUCGGCGUACUGGUAACGCGUCUCCCUCCUAAGGAGAAGACUGCGGGUUCGAGUCCCCUACGGAACG [C4U U8C A15C G63C]  yeast fitness               ≤ 0.5
3  GUUUCGAUGGCGUAAUGGUAACGCGUCUCGCUCGUAAGGCGAAGACUGCGGGUUCGAGUCCCGUUCGGAACG [C4U U7A C30G C34G A40C A65U]  yeast fitness               ≤ 0.5
4  GUUCCGUUGGCCUAAUGGUAACGCGUCUCCCUCCUCUGGAGAAGACUGCGGGUUCGAGUCCCGUACGGAACG [G12C A36C A37U]  yeast fitness               ≤ 0.5
5  GUUCCGUUGGCGUUAUGGUAACGCGUCUCACUCCUAAGGAGAAGAUUGCGGGUUCGAGUCCAGUACGGAACG [A14U C30A C46U C62A]  yeast fitness               ≤ 0.5

For the variant GUUCCGUUGGCAUAAUGGUAAAGAGUCUCCCUCCUAAGGAGAAGACUGCGGGUUCGAGUCCCGUUCGGAACG [G12A C22A C24A A65U] , report yeast fitness.
≤ 0.5

For the variant GUUCCGUUGGCCUAAUGGUAACGCGUCUCCCUCCUAAGGAGAAGACAGCGGCUUCGAGUCCCGUACGGAACG [G12C U47A G52C] , report yeast fitness.
≤ 0.5

For the variant GUUCCGUUGGCGUAAUGGUAUCGCAUCUCCCUCCUAAGGAGAAGACUGCGGGUUCGAGUCCAGUACGGAACG [A21U G25A C62A] , report yeast fitness.
≤ 0.5

For the variant GUUCAGUUGGCGUAAUAGUAACGCGUCUCCCUCCUGAGGAGAAGACUGCGGGUUCGAGUCCCGUACGGAGCG [C5A G17A A36G A70G] , report yeast fitness.
≤ 0.5

For the variant GUUCCGUUGGCGUCAUGGUAACGAGUGUCCCUCCUAAGGAGAAGAGUGCGGGUUCGAGUCCCGUGCGGAACG [A14C C24A C27G C46G A65G] , report yeast fitness.
≤ 0.5

For the variant GUUCCGUUGGCGUAAUGAUAACGCGUCUCCCUCCUAAGGAGAAGACUGCGGGUUCGAGUCCGGUACGCAACG [G18A C62G G68C] , report yeast fitness.
≤ 0.5
